Exercise: for every item that follows, state its recorded pIC50.
Protein target, amino acids: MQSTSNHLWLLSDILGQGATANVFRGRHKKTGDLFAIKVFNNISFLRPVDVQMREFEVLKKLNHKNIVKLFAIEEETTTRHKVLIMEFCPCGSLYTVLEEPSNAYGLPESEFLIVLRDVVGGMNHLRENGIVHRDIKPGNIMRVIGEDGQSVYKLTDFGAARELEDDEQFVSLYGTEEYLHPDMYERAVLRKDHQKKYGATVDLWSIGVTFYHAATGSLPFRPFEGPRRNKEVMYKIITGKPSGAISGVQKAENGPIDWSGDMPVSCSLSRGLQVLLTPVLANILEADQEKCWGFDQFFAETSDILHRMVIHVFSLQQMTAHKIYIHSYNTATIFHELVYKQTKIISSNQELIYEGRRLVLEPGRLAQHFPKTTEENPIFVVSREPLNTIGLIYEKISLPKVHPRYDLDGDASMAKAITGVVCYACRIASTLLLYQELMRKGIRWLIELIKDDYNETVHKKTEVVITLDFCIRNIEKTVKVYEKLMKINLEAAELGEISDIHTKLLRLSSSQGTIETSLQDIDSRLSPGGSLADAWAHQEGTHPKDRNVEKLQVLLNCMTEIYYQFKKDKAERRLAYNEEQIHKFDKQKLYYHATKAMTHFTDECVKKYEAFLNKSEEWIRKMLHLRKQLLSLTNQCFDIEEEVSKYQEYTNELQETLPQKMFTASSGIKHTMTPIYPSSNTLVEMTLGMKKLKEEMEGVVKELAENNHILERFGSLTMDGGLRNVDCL
pIC50: −log10 of the molar value.

Asked: Item under review: COc1cc(-c2cc3nccc(-c4ccc(OC5CCOCC5)c(C#N)c4)c3o2)ccc1C(=O)NC1CCN(C)CC1 . Reported pIC50?
Given back: > 6.52

Asked: Item under review: COc1cc(-c2cc3nccc(-c4ccc(OC5CCOCC5)c(C#N)c4)c3o2)ccc1C(=O)N1CCNCC1 . Reported pIC50?
Given back: > 6.52

Asked: Item under review: N#Cc1cc(-c2ccnc3cc(-c4cnn(C5CCN(CCCO)CC5)c4)oc23)ccc1OC1CCOCC1 . Reported pIC50?
Given back: > 6.52

Asked: Item under review: N#Cc1cc(-c2ccnc3cc(-c4ccc(C(=O)NCCO)cc4)oc23)ccc1OC1CCOCC1 . Reported pIC50?
Given back: > 6.52

Asked: Item under review: N#Cc1cc(-c2ccnc3cc(-c4cccc(N5CCOCC5)c4)oc23)ccc1OC1CCOCC1 . Reported pIC50?
Given back: > 6.52

Asked: Item under review: COc1cc(C(=O)N2CCC(O)CC2)ccc1-c1cc2nccc(-c3ccc(OC4CCOCC4)c(C#N)c3)c2o1 . Reported pIC50?
Given back: > 6.52

Asked: Item under review: N#Cc1cc(-c2ccnc3cc(-c4ccc5[nH]c(=O)[nH]c5c4)oc23)ccc1OC1CCOCC1 . Reported pIC50?
Given back: 4.30 to 5.52

Asked: Item under review: N#Cc1cc(-c2ccnc3cc(-c4cnc5ccccc5c4)oc23)ccc1OC1CCOCC1 . Reported pIC50?
Given back: 4.30 to 5.52

Asked: Item under review: CN1CCN(C(=O)c2ccc(-c3cc4nccc(-c5ccc(OC6CCOCC6)c(C#N)c5)c4o3)cc2)CC1 . Reported pIC50?
Given back: > 6.52

Asked: Item under review: N#Cc1cc(-c2ccnc3cc(-c4ccc(C(=O)N5CCNCC5)cc4)sc23)ccc1OC1CCOCC1 . Reported pIC50?
Given back: > 6.52

Asked: Item under review: N#Cc1cc(-c2ccnc3cc(-c4ccc(C(=O)N5CCC(O)CC5)cc4F)oc23)ccc1OC1CCOCC1 . Reported pIC50?
Given back: > 6.52

Asked: Item under review: COc1cc(-c2cc3nccc(-c4ccc(OC5CCOCC5)c(C#N)c4)c3o2)ccc1C(=O)N1CCOCC1 . Reported pIC50?
Given back: > 6.52

Asked: Item under review: COCCn1cc(-c2cc3nccc(-c4ccc(OC5CCOCC5)c(C#N)c4)c3s2)cn1 . Reported pIC50?
Given back: > 6.52

// provenance: patent US9045493B2
